TARGET_OR_TEST_SYSTEM: E275D Slo2.1 channels (Homo sapiens, UniProt Q6UVM3, E275D)
Sequence (Q6UVM3 whole entry E275D): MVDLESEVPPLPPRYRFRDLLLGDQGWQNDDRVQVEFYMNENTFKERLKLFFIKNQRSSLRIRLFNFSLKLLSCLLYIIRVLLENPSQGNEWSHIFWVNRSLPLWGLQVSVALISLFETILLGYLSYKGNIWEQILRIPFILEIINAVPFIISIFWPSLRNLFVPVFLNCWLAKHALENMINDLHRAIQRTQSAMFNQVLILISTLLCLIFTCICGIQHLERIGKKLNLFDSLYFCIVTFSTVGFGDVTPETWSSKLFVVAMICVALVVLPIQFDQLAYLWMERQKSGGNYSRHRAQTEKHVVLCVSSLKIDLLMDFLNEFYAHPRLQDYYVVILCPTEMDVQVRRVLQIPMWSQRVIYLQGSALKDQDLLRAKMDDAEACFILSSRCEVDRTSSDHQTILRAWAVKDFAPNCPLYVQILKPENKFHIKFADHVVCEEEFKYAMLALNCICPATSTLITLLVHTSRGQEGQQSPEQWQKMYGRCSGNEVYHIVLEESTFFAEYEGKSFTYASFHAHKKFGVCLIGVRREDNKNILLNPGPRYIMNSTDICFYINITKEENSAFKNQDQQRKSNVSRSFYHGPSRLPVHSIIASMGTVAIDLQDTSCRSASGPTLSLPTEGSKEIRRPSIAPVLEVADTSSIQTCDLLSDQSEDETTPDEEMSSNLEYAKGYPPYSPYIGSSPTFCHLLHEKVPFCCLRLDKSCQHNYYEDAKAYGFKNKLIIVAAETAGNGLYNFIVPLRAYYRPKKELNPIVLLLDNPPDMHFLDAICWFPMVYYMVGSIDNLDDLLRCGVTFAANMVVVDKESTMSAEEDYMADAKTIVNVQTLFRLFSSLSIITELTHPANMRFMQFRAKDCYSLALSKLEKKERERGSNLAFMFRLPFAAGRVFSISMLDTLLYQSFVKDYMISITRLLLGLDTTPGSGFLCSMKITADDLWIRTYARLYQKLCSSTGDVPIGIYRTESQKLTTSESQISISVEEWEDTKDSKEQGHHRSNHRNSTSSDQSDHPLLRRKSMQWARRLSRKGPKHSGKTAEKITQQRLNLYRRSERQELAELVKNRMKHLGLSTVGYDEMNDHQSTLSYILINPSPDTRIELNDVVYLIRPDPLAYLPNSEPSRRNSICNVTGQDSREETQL
ASSAY_NAME: Activation of ISlo2.1 by NFA, two-electrode voltage clamp in oocytes
Assay type: cell-based
VALUE_KIND: EC50
I'd appreciate it if you wrote the number followed by its unit.

Inquiry: Which EC50 is reported for this compound? "O=C(O)c1cccnc1Nc1cccc(C(F)(F)F)c1"
Reply text: 192 µM

###

TARGET_OR_TEST_SYSTEM: F258A Slo2.1 channels (Homo sapiens, UniProt Q6UVM3, F258A)
Sequence (Q6UVM3 whole entry F258A): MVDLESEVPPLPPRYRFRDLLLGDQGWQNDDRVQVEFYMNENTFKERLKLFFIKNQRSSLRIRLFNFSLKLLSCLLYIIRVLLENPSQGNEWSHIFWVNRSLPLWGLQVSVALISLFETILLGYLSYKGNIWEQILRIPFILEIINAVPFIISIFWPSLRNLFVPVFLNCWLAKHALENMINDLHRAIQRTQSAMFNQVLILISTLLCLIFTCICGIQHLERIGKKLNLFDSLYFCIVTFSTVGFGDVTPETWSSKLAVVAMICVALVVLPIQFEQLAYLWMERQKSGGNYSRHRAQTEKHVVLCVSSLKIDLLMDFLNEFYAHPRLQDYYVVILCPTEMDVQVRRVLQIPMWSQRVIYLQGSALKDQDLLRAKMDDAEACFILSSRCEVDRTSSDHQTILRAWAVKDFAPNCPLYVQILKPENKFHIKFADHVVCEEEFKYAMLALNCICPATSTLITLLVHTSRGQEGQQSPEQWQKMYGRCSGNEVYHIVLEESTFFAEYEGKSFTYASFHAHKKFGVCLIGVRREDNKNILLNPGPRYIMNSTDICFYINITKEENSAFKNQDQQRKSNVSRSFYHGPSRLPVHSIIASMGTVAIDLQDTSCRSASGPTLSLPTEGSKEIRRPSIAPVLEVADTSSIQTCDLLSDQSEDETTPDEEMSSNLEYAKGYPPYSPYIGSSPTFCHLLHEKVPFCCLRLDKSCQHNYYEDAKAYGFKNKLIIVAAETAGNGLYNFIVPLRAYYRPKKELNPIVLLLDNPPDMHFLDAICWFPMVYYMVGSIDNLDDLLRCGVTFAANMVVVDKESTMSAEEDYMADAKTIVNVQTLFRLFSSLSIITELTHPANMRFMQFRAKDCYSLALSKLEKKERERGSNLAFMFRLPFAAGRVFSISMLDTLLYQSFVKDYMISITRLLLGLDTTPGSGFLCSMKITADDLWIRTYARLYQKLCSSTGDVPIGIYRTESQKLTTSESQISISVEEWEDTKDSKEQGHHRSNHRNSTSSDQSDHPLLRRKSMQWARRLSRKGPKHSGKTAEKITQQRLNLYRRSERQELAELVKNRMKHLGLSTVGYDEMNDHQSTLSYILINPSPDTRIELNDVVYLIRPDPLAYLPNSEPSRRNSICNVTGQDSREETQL
ASSAY_NAME: Activation of ISlo2.1 by NFA, two-electrode voltage clamp in oocytes
VALUE_KIND: EC50 (µM)
Value expressed in µM; do not type the unit.

Inquiry: Which EC50 is listed for "O=C(O)c1cccnc1Nc1cccc(C(F)(F)F)c1" ?
Reply text: 400
